B1: RAB22A (parent)
chain: FVEDSFDPNINPTIGASFMTKTVQ

# Variants of: B1
# method_summary: protein stability index of a GFP-peptide fusion (GPS, HEK-293T) (PSI 1-6); higher = more stable;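 also: lentivirally expressed fusions sorted by FACS into six bins by GFP to DsRed ratio, PSI derived from sequencing read proportions per bin multiplied by bin number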
# experimental_setup: c terminus: a fixed tail appended
Mark 1 for reported protein stability index of 3 or greater; mark -1 for anything smaller.

For this variant, is measured protein stability index 3 or higher? M19H
-1

Also T22G , if possible.
-1

Also F18H , if possible.
1

Also F18I , if possible.
1

Also D4C , if possible.
-1

Also N11L , if possible.
-1

Also T22K , if possible.
-1

Also T20W , if possible.
-1

Also A16W , if possible.
-1
